assay: AUC (0 to 24 hrs) in dog at 1 mg/kg, iv; type: ADME, organism-based, Canis lupus familiaris; design: time < 24 hr, dose 1 mg/kg, route intravenous; conditions: in vivo
propertyName: AUC(0-t) at 24 h (µM·h)

# smilesInput, reported
records = [
    ("CN1CC2CCC(C1)N2C(=O)[C@]12C[C@H]1c1cc(F)ccc1-c1c(C3CCCCC3)c3ccc(C(=O)NS(=O)(=O)C4(C)CC4)cc3n1C2", 25.7),
]

----------
assay: AUC (0 to 6 hrs) in rat at 5 mg/kg, iv; assay type: ADME, organism-based; set-up: dose 5 mg/kg, time < 6 hr, route intravenous; conditions: in vivo
propertyName: AUC(0-t) at 6 h (µM·h)

# smilesInput, propertyName, reported
measured = [
    ("CN1CC2CCC(C1)N2C(=O)[C@]12C[C@H]1c1cc(F)ccc1-c1c(C3CCCCC3)c3ccc(C(=O)NS(=O)(=O)C(C)(C)C)cc3n1C2", "AUC(0-t) at 6 h", 1.3),
]

All values here come from ChEMBL document CHEMBL4052691.
